pIC50 listing for selected compounds.
molecular target: human alpha1 nicotinic acetylcholine (nACh) receptor (Homo sapiens, UniProt P02708+Q07001); experiment: Nicotinic acetylcholine receptor antagonism assay (IONFlux automated patch clamp); conditions: nAChR antagonism, stimulated with ACh; average if more than one run
Sequence (P02708 21-457): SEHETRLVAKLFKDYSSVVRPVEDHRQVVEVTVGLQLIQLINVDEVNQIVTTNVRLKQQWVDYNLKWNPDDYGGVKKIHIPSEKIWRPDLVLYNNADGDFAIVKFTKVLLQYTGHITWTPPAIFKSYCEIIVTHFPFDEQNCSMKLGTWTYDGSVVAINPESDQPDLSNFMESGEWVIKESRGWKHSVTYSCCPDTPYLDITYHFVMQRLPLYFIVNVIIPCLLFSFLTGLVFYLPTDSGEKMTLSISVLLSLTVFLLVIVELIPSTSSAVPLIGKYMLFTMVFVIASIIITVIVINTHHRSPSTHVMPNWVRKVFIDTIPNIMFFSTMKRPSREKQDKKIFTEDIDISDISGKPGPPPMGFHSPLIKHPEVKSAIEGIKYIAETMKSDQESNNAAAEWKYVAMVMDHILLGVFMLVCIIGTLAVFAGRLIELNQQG
Sequence (P11230 24-501 partner): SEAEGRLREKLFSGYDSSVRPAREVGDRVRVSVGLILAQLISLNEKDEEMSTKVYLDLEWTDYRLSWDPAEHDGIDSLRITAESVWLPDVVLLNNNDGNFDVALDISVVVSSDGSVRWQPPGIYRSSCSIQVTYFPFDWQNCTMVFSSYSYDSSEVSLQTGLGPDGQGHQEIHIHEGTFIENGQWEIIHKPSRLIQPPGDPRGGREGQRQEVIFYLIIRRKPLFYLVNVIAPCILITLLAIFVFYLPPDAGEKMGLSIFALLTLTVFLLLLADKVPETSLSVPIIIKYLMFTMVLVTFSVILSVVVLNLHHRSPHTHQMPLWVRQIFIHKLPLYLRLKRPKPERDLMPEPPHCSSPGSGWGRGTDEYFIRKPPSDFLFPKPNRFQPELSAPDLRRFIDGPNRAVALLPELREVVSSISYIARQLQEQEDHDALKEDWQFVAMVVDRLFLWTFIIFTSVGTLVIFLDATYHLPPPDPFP
Sequence (Q07001 22-517): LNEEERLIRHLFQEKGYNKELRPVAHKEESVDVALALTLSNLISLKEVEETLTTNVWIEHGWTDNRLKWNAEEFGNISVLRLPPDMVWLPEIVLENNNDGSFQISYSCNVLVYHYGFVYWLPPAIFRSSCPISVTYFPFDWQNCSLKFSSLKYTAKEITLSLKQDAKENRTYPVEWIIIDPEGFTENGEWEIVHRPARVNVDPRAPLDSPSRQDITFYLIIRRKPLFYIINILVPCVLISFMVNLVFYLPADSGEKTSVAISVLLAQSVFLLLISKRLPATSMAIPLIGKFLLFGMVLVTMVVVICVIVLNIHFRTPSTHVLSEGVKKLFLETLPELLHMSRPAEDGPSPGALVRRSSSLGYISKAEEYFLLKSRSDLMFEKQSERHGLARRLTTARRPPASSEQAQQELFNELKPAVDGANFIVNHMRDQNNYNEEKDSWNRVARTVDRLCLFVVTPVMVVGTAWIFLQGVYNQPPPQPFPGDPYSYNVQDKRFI
pIC50: −log10 of the molar value.

>  <Compound>
CC(=O)N[C@@H]1C[C@H](NC(C)(C)C)CC[C@@H]1N1CC[C@H](Nc2nc([C@H]3CC[C@H](NC(=O)[C@H]4CC[C@H](NC(=O)CCCO[C@H]5CC[C@H](OCCNC(=O)[C@H]6CC(=O)N(C)[C@@H]6c6cccnc6)CC5)CC4)CC3)nc3ccc(C(F)(F)F)cc23)C1=O [Example 11]

>  <Result Value>
< 4.48

$$$$
>  <Compound>
CC(=O)N[C@@H]1C[C@H](NC(C)(C)C)CC[C@@H]1N1CC[C@H](Nc2nc(CCCCNC(=O)[C@H]3CC[C@H](NC(=O)CCCO[C@H]4CC[C@H](OCCNC(=O)[C@H]5CC(=O)N(C)[C@@H]5c5cccnc5)CC4)CC3)nc3ccc(C(F)(F)F)cc23)C1=O [Example 3]

>  <Result Value>
< 4.48

$$$$

Now consider the entry below.
Q) Recorded pIC50 of CC(=O)N[C@@H]1C[C@H](NC(C)(C)C)CC[C@@H]1N1CC[C@H](Nc2nc(COCCNC(=O)[C@H]3CC[C@H](NC(=O)CCCO[C@H]4CC[C@H](OCCNC(=O)[C@H]5CC(=O)N(C)[C@@H]5c5cccnc5)CC4)CC3)nc3ccc(C(F)(F)F)cc23)C1=O [Example 14] , please.
A) < 4.00
